Recorded measurements of %Inh, one per entry
Tested on: MAP3K2
assay-conditions: concentration: 1 μM,replicates: in singlicate; n = 1;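 further: KINOMEscan kinase panel screen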
measurement-name: %Inh (%)

* CC(C)S(=O)(=O)N1CCN(Cc2ccc3c(c2)nc(NC(=O)c2ccsc2)n3C[C@H](O)c2ccccc2)CC1 | 47
* CS(=O)(=O)c1cccc(CNc2nc(Nc3ccc4c(c3)[C@@H]3C[C@@H]4CNC3=O)ncc2C(F)(F)F)c1 | 65
* CSc1nccc(-c2c(-c3ccc(F)cc3)ncn2CCCN2CCOCC2)n1.Cl | 23
* CS(=O)c1ccc(-c2coc3ccc(-c4n[nH]c(=O)o4)cc23)cc1 (stereo not shown) | 0

---

Test system: PRKD1
assay-conditions: concentration: 1 μM,replicates: in singlicate; n = 1
Form field: %Inh (one value per entry).
measurement-name: %Inh (%)

- FC(F)(F)c1cc(Br)cc(Nc2nccc(-c3cnn4ncccc34)n2)c1: 4
- CCCC(=O)Nc1n[nH]c2ncccc12: 0
- O=C(Nc1n[nH]c2cc(-c3ccco3)ccc12)C1CC1: 0
- O=c1[nH]cc(-c2ccc(O)cc2)c2sc(-c3ccncc3)cc12: 0
- Cl.Cl.NC[C@H](CC1CCCCC1)NC(=O)c1ccc(-c2ccnc3[nH]ccc23)s1: 91.8
- CC(C)c1nc(-c2cccc(NS(=O)(=O)c3ccccc3)c2)c(-c2ccnc(Nc3ccc4c(c3)CN(C)CC4)n2)s1: 93.9
- C[C@@H](Oc1cc(-n2cnc3cc(-c4cnn(C)c4)ccc32)sc1C(N)=O)c1ccccc1Cl: 0
- C[C@@H]1CCN(C(=O)N2CCCC2)C[C@@H]1N(C)c1ncnc2[nH]ccc12: 0
- Cc1n[nH]c2cc(Nc3ccnc(Nc4cccc(CN5CCOCC5)c4)n3)ccc12: 0

---

Test system: HASPIN
Construct: gene GSG2
assay-conditions: concentration: 1 μM,replicates: in singlicate; n = 1
measurement-name: %Inh (%)

- CCn1c(-c2nonc2N)nc2cncc(Br)c21: 99.4
- N#Cc1cccc(C(=O)NC2CCN(c3ccnc(Nc4ccc(F)cc4)n3)C2)c1 (centres unmarked): 0
- c1ccc(Oc2ccc(Nc3ccnc4ccc(-c5ccccn5)cc34)cc2)cc1: 0
- C[C@@H]1CNc2c(sc3ccc4nc(-c5ccncc5)ccc4c23)C(=O)N1: 70
- COc1ccc(Nc2nccc(N3CCC(NC(=O)c4cccc(C#N)c4)C3)n2)cc1 (centres unmarked): 6

---

// reported %Inh for each item listed
Tested on: RIPK1
assay-conditions: concentration: 1 μM,replicates: in singlicate; n = 1
measurement-name: %Inh (%)

* CCn1c(-c2nonc2N)nc2cncc(CNC3CCNCC3)c21.Cl | 0
* CS(=O)(=O)Nc1ccc(-c2ccnc3[nH]ccc23)cc1 | 0
* Cc1ccc(Nc2ccnc(Nc3ccc4c(c3)CS(=O)(=O)C4)n2)cc1O.Cl | 25
* CNC(=O)c1ccccc1Nc1nc(Nc2cccc(CS(C)(=O)=O)c2)ncc1C.O=CO | 21
* O=C(Nc1cccc(Oc2ccc3nccn3n2)c1)Nc1cccc(C(F)(F)F)c1 | 5

---

Measured %Inh, listed per entry for reference.
Tested on: CAMK2B
assay-conditions: concentration: 1 μM,replicates: in singlicate; n = 1
measurement-name: %Inh (%)

• COC(=O)Nc1nc2cc(Oc3ccc(NC(=O)Nc4cc(C(F)(F)F)ccc4Cl)cc3)ccc2[nH]1.Cl = 0
• COc1cccc(CNC(=O)NC2CCN(c3ccnc(Nc4cc(OC)c(OC)c(OC)c4)n3)C2)c1 (stereo not drawn) = 0
• CCOC(=O)N1CCC(n2cnc(-c3ccc(F)cc3)c2-c2ccnc(N)n2)CC1 = 0
• CCNCC(Cc1ccccc1)NC(=O)c1cc(Br)c(-c2ccnc3[nH]ccc23)s1.Cl.Cl (stereo not drawn) = 0
• Cc1n[nH]c2cc(Nc3ccnc(Nc4cccc(CN5CCOCC5)c4)n3)ccc12 = 0
• Cn1ccc2ncnc(Oc3ccc(NC(=O)Nc4cnn(C(C)(C)C)c4)c(Cl)c3)c21 = 17
• CN(c1ccccc1CNc1nc(Nc2ccc3c(c2)CC(=O)N3)ncc1C(F)(F)F)S(C)(=O)=O = 18
• O=C(Nc1ccc(Oc2ccc3nc(NC(=O)C4CC4)cn3n2)c(F)c1)c1cccn(-c2ccccc2)c1=O = 0
• COc1ccc(Nc2nccc(N3CCC(NC(=O)c4cccc(C#N)c4)C3)n2)cc1 (stereo not drawn) = 0
• O=C(Nc1cccc(C(F)(F)F)c1)c1cccc(Oc2ccc3nccn3n2)c1 = 0
• OCCn1cc(-c2cnc3nnn(Cc4ccc5ncccc5c4)c3n2)cn1 = 0
• C[C@@H]1CNc2c(sc3ccc4nc(-c5ccc(O)cc5)ccc4c23)C(=O)N1 = 36
• CCCC(=O)Nc1n[nH]c2ncccc12 = 0
• Cn1ccc2ncnc(Oc3ccc(NC(=O)Nc4cc(C(C)(C)C)on4)c(Cl)c3)c21 = 100
• O=C(NOCC1CC1)c1cc(Br)c(F)c(F)c1Nc1ccc(I)cc1Cl = 0
• CN(c1cccc(CNc2nc(Nc3ccc4c(c3)CC(=O)N4)ncc2C(F)(F)F)c1)S(C)(=O)=O = 0
• O=C1NCCc2[nH]c(-c3ccncc3)cc21 = 10
• CC(C)S(=O)(=O)N1CCN(Cc2ccc3c(c2)nc(NC(=O)c2ccsc2)n3C[C@H](O)c2ccccc2)CC1 = 0
